Source: patent US12325708B2

Test: Plasma pharmacokinetic parameters of Compound 1 in dogs
Format: in vivo
Conditions: plasma; dog, PO 1 mg/kg
From the text: Pharmacokinetic parameters were further estimated in vivo after IV or PO administration of Compound 1 in mice and dogs with the results provided in Table 4 below.
OBSERVABLE: AUC(0-inf) (ng·h/mL)
Write the number in ng·h/mL without appending the unit.

Sure, the documented AUC(0-inf) for COCCOc1ccc(N2CCN(CCN(C)c3cc4nc(-c5ncco5)nn4c(N)n3)CC2)cc1 is 2020

----------
test: Plasma pharmacokinetic parameters following intravenous (IV) or oral (PO) administration in rats; assay type: in vivo, Sprague-Dawley rats; conditions: male, Sprague-Dawley, rat, plasma, oral, 2.5 mg/kg; Table 2 summary of Example 27; values marked 1 are the average of experiments
The entries below come with measured AUC values attached.
Answer format: numeric, ng·h/mL implied, no suffix.

Examples from the recorded data:
COCCOc1cnc(N2CCN(CCN(C)c3cc4nc(-c5ncco5)nn4c(N)n3)CC2)c(Cl)c1; 1480
COCCOc1ccc(N2CCN(CCN(C)c3cc4nc(-c5ccco5)nn4c(N)n3)CC2)cc1 [Reference compound, reference compound]; 408
COCCOc1cnc(N2CCN(CCN(C)c3cc4nc(-c5ncco5)nn4c(N)n3)CC2)c(C(F)(F)F)c1; 4980
COCCOc1cnc(N2CCN(CCN(C)c3cc4nc(-c5ncco5)nn4c(N)n3)CC2)c(F)c1; 898

Could you now consider this next compound?
So, COCCOc1ccc(N2CCN(CCN(C)c3cc4nc(-c5ncco5)nn4c(N)n3)CC2)cc1 ? Its AUC was 969

----------
test: Solubility; type: physicochemical; details: pH ~3
OBSERVABLE: solubility

So, COCCOc1ccc(N2CCN(CCN(C)c3cc4nc(-c5ncco5)nn4c(N)n3)CC2)cc1 ? Its solubility was ~5 mM

----------
experiment: Plasma protein binding (PPB), human; format: in vitro ADME; settings: read-out: Plasma protein binding (PPB) (fu)
OBSERVABLE: fraction unbound
Answer with a bare number; do not write a unit.

Recorded fraction unbound (compound COCCOc1ccc(N2CCN(CCN(C)c3cc4nc(-c5ncco5)nn4c(N)n3)CC2)cc1 ): 0.39

----------
assay: Plasma pharmacokinetic parameters following intravenous (IV) or oral (PO) administration in rats; format: in vivo, Sprague-Dawley rats; conditions: male, Sprague-Dawley, rat, plasma, po, 2.5 mg/kg, Table 6; oral (PO) administration essentially as described in Example 28
OBSERVABLE: bioavailability (%)
Numeric only. Scale: %

Reported bioavailability ( COCCOc1ccc(N2CCN(CCN(C)c3nc(N)n4nc(-c5ncco5)nc4n3)CC2)cc1 [Compound 2] ) = 43

Documented bioavailability of COCCOc1cnc(N2CCN(CCN(C)c3cc4nc(-c5ncco5)nn4c(N)n3)CC2)nc1 [Compound 3] : 44

Query COCCOc1ccc(N2CCN(CCN(C)c3cc4nc(-c5ncco5)nn4c(N)n3)CC2)c(Cl)c1 [Compound 15] yields bioavailability of 57

Value of measured bioavailability for the entry [2H]C([2H])([2H])OC([2H])([2H])C([2H])([2H])Oc1ccc(N2CCN(C([2H])([2H])C([2H])([2H])N(c3cc4nc(-c5ncco5)nn4c(N)n3)C([2H])([2H])[2H])CC2)cc1 [Compound 16] : 58

Record summary for [2H]C([2H])([2H])OC([2H])([2H])C([2H])([2H])Oc1cnc(N2CCN(CCN(C)c3cc4nc(-c5ncco5)nn4c(N)n3)CC2)c(F)c1 [Compound 13] : reported bioavailability = 57

Recorded bioavailability (molecule COCCOc1ncc(N2CCN(CCN(C)c3cc4nc(-c5ncco5)nn4c(N)n3)CC2)cc1C(F)(F)F [Compound 22] ): 25

Field bioavailability (entry COCCOc1ccc(N2CCN(CCN(C)c3cc4nc(-c5ncco5)nn4c(N)n3)CC2)nc1 [Compound 23] ) reads 42

bioavailability measured on [2H]C([2H])([2H])OCCOc1ccc(N2CCN(CCN(c3cc4nc(-c5ncco5)nn4c(N)n3)C([2H])([2H])[2H])CC2)cc1 [Compound 8] = 63

Kindly note the recorded bioavailability for COCCOc1ccc(N2CCN(CCN(C)c3cc4nc(-c5ncco5)nn4c(N)n3)CC2)c(OC)c1 [Compound 17] , which is 43

For reference, reported bioavailability for CN(CCN1CCN(c2ccc(OCCOC(F)(F)F)cc2)CC1)c1cc2nc(-c3ncco3)nn2c(N)n1 [Compound 5] stands at 48

Item: [2H]C([2H])([2H])N(CCN1CCN(c2ccc(OCCOC)cc2)CC1)c1cc2nc(-c3ncco3)nn2c(N)n1 [Compound 6] | bioavailability: 64

Please fill in: bioavailability reported for COCCOc1ccc(N2CCN(CCNc3cc4nc(-c5ncco5)nn4c(N)n3)CC2)cc1 [Compound 24] = 70

In plain terms, [2H]C([2H])([2H])OCCOc1ccc(N2CCN(CCN(C)c3cc4nc(-c5ncco5)nn4c(N)n3)CC2)c(F)c1 [Compound 10] has a documented bioavailability of 57

Recorded result, [2H]C([2H])([2H])OC([2H])([2H])C([2H])([2H])Oc1ccc(N2CCN(CCN(C)c3cc4nc(-c5ncco5)nn4c(N)n3)CC2)cc1 [Compound 12] , bioavailability: 56

----------
compounds and their reported clearance
assay: Plasma pharmacokinetic parameters following intravenous (IV) or oral (PO) administration in rats; format: in vivo, Sprague-Dawley rats; conditions: male, Sprague-Dawley, rat, plasma, intravenous, 0.5 mg/kg, Table 6; essentially as described in Example 28
Value expressed in mL/min/kg; do not type the unit.

Some solved cases for reference:
[2H]C([2H])([2H])OC([2H])([2H])C([2H])([2H])Oc1ccc(N2C([2H])([2H])C([2H])([2H])N(C([2H])([2H])C([2H])([2H])N(c3cc4nc(-c5ncco5)nn4c(N)n3)C([2H])([2H])[2H])C([2H])([2H])C2([2H])[2H])cc1; 17
[2H]C([2H])([2H])OC([2H])([2H])C([2H])([2H])Oc1ccc(N2CCN(CCN(C)c3cc4nc(-c5ncco5)nn4c(N)n3)CC2)cc1; 23
[2H]C([2H])([2H])OC([2H])([2H])C([2H])([2H])Oc1ccc(N2CCN(C([2H])([2H])C([2H])([2H])N(c3cc4nc(-c5ncco5)nn4c(N)n3)C([2H])([2H])[2H])CC2)cc1; 20

Documented clearance of [2H]C([2H])([2H])OC([2H])([2H])C([2H])([2H])Oc1ccc(N2CCN(CCN(c3cc4nc(-c5ncco5)nn4c(N)n3)C([2H])([2H])[2H])CC2)cc1 : 33

----------
Test: Plasma pharmacokinetic parameters following intravenous (IV) or oral (PO) administration in rats
Type: in vivo, Sprague-Dawley rats
Settings: male, Sprague-Dawley, rat, plasma, iv, 0.5 mg/kg, IV 0.5 mg/kg, injectable water
Description: Adult male Sprague-Dawley rats (230-250 g) (Charles River Labs, Hollister, CA) were utilized for the study. There were 2 rats/group. All animals were food fasted overnight with water provided ad libitum at all times. […] The morning of each dosing, individual doses were calculated based on current body weights on the day of dosing. […] Pharmacokinetic parameters (PK) were determined by non-compartmental analysis (NCA) using Phoenix 64 WinNonlin (version 8) and Dotmatics (version 5.0). […]
Form field: MRT last (one value per entry).

COCCOc1cnc(N2CCN(CCN(C)c3cc4nc(-c5ncco5)nn4c(N)n3)CC2)c(F)c1; 0.89 h
COCCOc1cnc(N2CCN(CCN(C)c3cc4nc(-c5ncco5)nn4c(N)n3)CC2)c(C(F)(F)F)c1; 1.48 h
COCCOc1ccc(N2CCN(CCN(C)c3cc4nc(-c5ncco5)nn4c(N)n3)CC2)cc1; 1.41 to 1.45 h

Okay, next one:
So, COCCOc1cnc(N2CCN(CCN(C)c3cc4nc(-c5ncco5)nn4c(N)n3)CC2)c(Cl)c1 ? Its MRT last was 0.977 h

----------
assay: Hepatic clearance in vitro CLint, rat liver microsomes; type: in vitro ADME
OBSERVABLE: microsomal CLint (µL/min/mg)
Reply with just the number (in µL/min/mg).

The value of microsomal CLint measured for the molecule COCCOc1ccc(N2CCN(CCN(C)c3cc4nc(-c5ncco5)nn4c(N)n3)CC2)cc1 [Compound 1] turned out to be 17

----------
assay: Plasma pharmacokinetic parameters following intravenous (IV) or oral (PO) administration in rats; assay type: in vivo, Sprague-Dawley rats; settings: male, Sprague-Dawley, rat, plasma, intravenous, 0.5 mg/kg, Table 2 summary of Example 27; values marked 1 are the average of experiments
In this section we review reported clearance values for a set of molecules.

COCCOc1ccc(N2CCN(CCN(C)c3cc4nc(-c5ccco5)nn4c(N)n3)CC2)cc1 [Reference compound, reference compound]; 34 mL/min/kg
COCCOc1cnc(N2CCN(CCN(C)c3cc4nc(-c5ncco5)nn4c(N)n3)CC2)c(C(F)(F)F)c1 [Compound 19]; 7 mL/min/kg
COCCOc1cnc(N2CCN(CCN(C)c3cc4nc(-c5ncco5)nn4c(N)n3)CC2)c(F)c1 [Compound 4]; 34 mL/min/kg
COCCOc1ccc(N2CCN(CCN(C)c3cc4nc(-c5ncco5)nn4c(N)n3)CC2)cc1 [Compound 1]; 31 mL/min/kg

Now turn to the next molecule.
GET /value?item= COCCOc1cnc(N2CCN(CCN(C)c3cc4nc(-c5ncco5)nn4c(N)n3)CC2)c(Cl)c1 [Compound 14] &field=clearance returns 17 mL/min/kg
